Assay Target: P2Y1 receptor (Homo sapiens, UniProt P47900)
Construct: expressed in transfected cells
Sequence (P47900 whole entry): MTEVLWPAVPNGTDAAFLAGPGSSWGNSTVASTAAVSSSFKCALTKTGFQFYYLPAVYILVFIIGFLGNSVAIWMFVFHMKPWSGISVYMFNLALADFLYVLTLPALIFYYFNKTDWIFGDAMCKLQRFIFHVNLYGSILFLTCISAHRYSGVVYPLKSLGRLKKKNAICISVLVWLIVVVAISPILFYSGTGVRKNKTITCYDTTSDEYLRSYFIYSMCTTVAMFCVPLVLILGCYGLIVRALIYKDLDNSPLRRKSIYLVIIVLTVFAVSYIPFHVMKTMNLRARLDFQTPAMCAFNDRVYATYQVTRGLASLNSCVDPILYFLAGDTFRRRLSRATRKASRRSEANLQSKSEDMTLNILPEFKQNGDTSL
Test Details: P2Y1 IP1 accumulation HTRF assay, antagonism of agonist MRS2365 in stably transfected cells
Format: cell-based
Conditions Used: racemic; 5nM MRS2365; values rounded to nearest whole number; N >= 4
Property Name: IC50 (µM)

(I) O=C(Nc1ccc(OC(F)(F)F)cc1)Nc1cccnc1Oc1ccccc1C1COC1 (racemic) [S87]
(II) [2H]C([2H])([2H])Oc1ccc(NC(=O)Nc2cccnc2Oc2ccccc2C2(C(F)(F)F)CCO2)c(F)c1 (racemic) [S52]
For the pair I and II , which entry has the numerically smaller recorded IC50? I would appreciate it if you answered with the label of your choice.
II

(P) O=C(Nc1ccccc1)Nc1cccnc1Oc1ccccc1C1(C(F)F)CCO1 (racemic) [S80]
(Q) O=C(Nc1ccc(OC(F)(F)F)cc1)Nc1cccnc1Oc1cccc(C2(C(F)(F)F)CCO2)c1 (racemic) [S90]
Could you check which of P and Q has a smaller value for IC50? # respond with the chosen item's label
Q
(Q: 0.322 µM, P: 3.28 µM)

(a) Cc1ncc(NC(=O)Nc2ccc(Cl)c(F)c2)c(Oc2ccccc2C2(C(F)(F)F)CCO2)n1 (racemic) [S64]
(b) O=C(Nc1ccc(OC(F)(F)F)cc1F)Nc1cccnc1Oc1cc(F)ccc1C1(C(F)(F)F)CCO1 (racemic) [S12]
(c) Cc1ccc(NC(=O)NC2CC3(C2)CC(F)(F)C3)c(Oc2ccc(F)cc2C2(C(F)(F)F)CCO2)n1 (racemic) [S86]
Hello, I need these entries ordered by IC50, highest reading first. Thanks! Arrange the labels as the request states and list them.
c, a, b
(c: 6.05 µM, a: 0.926 µM, b: 0.087 µM)
